- method-notes: NCI Yeast Anticancer Drug Screen. Data for the cln2 rad14 strain (AID 165);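 further: 0% = growth equal to vehicle treated cultures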
- settings: S. cerevisiae cln2 rad14 strain, at 50.0 µM, hits give high values
- Protocol: Growth inhibition of yeast strains with defined genetic alterations is measured as a screen for potential anti-cancer activity. Selected strains with alterations in DNA damage repair or cell cycle control were exposed to compounds and growth inhibition was measured relative to vehicle treated controls. The strain used in this assay is cln2 rad14
Compounds without any hit were thinned out: in the full panel of roughly 79,000, 15% have a hit.
endpoint-label: growth inhibition (%)
The answer is to be given in %; state only the numeric part.

>  <molecule>
c1ccc2c3c(cc(CCc4cc5c(c6ccccc46)CCCC5)c2c1)CCCC3

>  <result-value>
-16

$$$$
>  <molecule>
NC(=O)c1cccc[n+]1[O-]

>  <result-value>
6.05

$$$$
>  <molecule>
COc1cc2cc(c1Cl)NC(=O)/C=C/[C@]1(C)O[C@H]1[C@H](C)[C@@H]1C[C@@](O)(NC(=O)O1)[C@H](OC)C=C/C=C(\C)C2

>  <result-value>
22.1

$$$$
>  <molecule>
CCC(CCCCCc1ccccc1)(C(=O)O)C(=O)O

>  <result-value>
-55

$$$$
>  <molecule>
O=C(O)C1CC2C3CCC2C1C3=O (stereo unspecified)

>  <result-value>
4.4

$$$$
>  <molecule>
COc1ccc([N+](=O)[O-])cc1NS(=O)(=O)c1ccc(NC(C)=O)cc1

>  <result-value>
-1.25

$$$$
>  <molecule>
COC(=O)CNC(=O)C(Cc1ccc(OCc2ccccc2)cc1)NC(=O)OC(C)(C)C (stereo unspecified)

>  <result-value>
2.25

$$$$
>  <molecule>
CN(N=O)C(N)=NC(=O)c1ccccc1

>  <result-value>
-20.6

$$$$
>  <molecule>
CC(C)CC(C)(CC(C)C)C(=O)O

>  <result-value>
-1.5

$$$$
>  <molecule>
CC1=COC(=O)[C@@H]2[C@@H](C)CC[C@@H]12

>  <result-value>
10.3

$$$$

Continue with the molecule presented below.
Exercise: Given the molecule Cc1cccc(/C=C/c2cccc[n+]2[O-])[n+]1[O-] , write its reported growth inhibition.
Key: -31.8

###

- method-notes: NCI Yeast Anticancer Drug Screen. Data for the mlh1 rad18 strain (AID 175)
- settings: S. cerevisiae mlh1 rad18 strain growth inhibition; at 50.0 µM; hits give high values
About 79,000 compounds went through this panel and 15% of them were active in at least one assay; those are over-represented in the sample as a whole.
endpoint-label: growth inhibition (%)
Field format: number, assumed %, no unit text.

Solved entries (count: 5):
>  <compound>
O=C1c2ccccc2N(Cc2cccc(F)c2)C2=NCCCC12 (stereo unspecified)

>  <result-value>
0.35

$$$$
>  <compound>
CC(C)N(C(=O)C12C3C4C5(C#N)C3C1(C#N)C5C42C#N)C(C)C (stereo unspecified)

>  <result-value>
-27.4

$$$$
>  <compound>
Cc1c(Cl)c(=O)oc2cc(OCC(O)COC(C)C)ccc12 (stereo unspecified)

>  <result-value>
-25.4

$$$$
>  <compound>
O=[N+]([O-])c1cccc(N=C(c2ccccc2)N(O)c2ccccc2)c1

>  <result-value>
15.8

$$$$
>  <compound>
NS(=O)(=O)c1ccc(Nc2c3ccccc3nc3ncccc23)cc1

>  <result-value>
16.9

$$$$

Exercise: Find the measured growth inhibition of O=C(O)C(C(C(=O)O)P(=O)(O)O)P(=O)(O)O (stereo unspecified) and report it.
Key: -62.3

Exercise: Report measured growth inhibition; entry is CC1(C)CC(OP(=O)(OC2CC(C)(C)N(O)C(C)(C)C2)c2ccccc2)CC(C)(C)N1O
Key: 6.5

Exercise: Indicate its recorded growth inhibition; the compound in question is CC1=CC[C@H]2C(C)=CC[C@@H](C(C)C)[C@@H]2C1
Key: 17.4

###

growth inhibition for assorted compounds
- method-notes: NCI Yeast Anticancer Drug Screen. Data for the cln2 rad14 strain (AID 165);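 further: 0% = growth equal to vehicle treated cultures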
- settings: S. cerevisiae cln2 rad14 strain, at 50.0 µM, hits give high values
The panel holds about 79,000 compounds, 15% with a hit somewhere; the sample as a whole holds those more often.
Record the value in %, omitting the unit from your answer.

Reference set (4 entries):
>  <compound>
CC(=O)OCC1OC(OC(C)=O)C(NC(=O)c2ccc(Br)cc2)C(OC(C)=O)C1OC(C)=O (configuration not stated)

>  <unit-label>
%

>  <result-value>
19.6

$$$$
>  <compound>
CCCCOc1ccc(C=Nc2ccc(C)cc2)cc1

>  <unit-label>
%

>  <result-value>
-8.5

$$$$
>  <compound>
O=C(OC[P+](c1ccccc1)(c1ccccc1)c1ccccc1)c1ccccc1

>  <unit-label>
%

>  <result-value>
33.8

$$$$
>  <compound>
O=[N+]([O-])c1cccc(N=C2c3ccccc3CN2c2cccc([N+](=O)[O-])c2)c1

>  <unit-label>
%

>  <result-value>
26.7

$$$$

Exercise: Report growth inhibition, nothing else, for this compound: COC(=O)c1nnn(-c2cccc(Cl)c2)c1C(=O)c1ccc(Cl)c(Cl)c1
Key: -5.25

###

- method-notes: NCI Yeast Anticancer Drug Screen. Data for the mlh1 rad18 strain (AID 175)
- settings: S. cerevisiae mlh1 rad18 strain growth inhibition; at 50.0 µM; hits give high values
Compounds without any hit were thinned out: in the full panel of roughly 79,000, 15% have a hit.
The following molecules are shown together with reported growth inhibition values.
Note: unit % is implicit; provide only the numeric part.

Examples with their reported growth inhibition follow.
>  <molecule>
CCOC(=O)c1cc(=O)[nH]c2ccc(OC)cc12

>  <endpoint-label>
growth inhibition

>  <result-value>
7.05

$$$$
>  <molecule>
CCSc1nc(COC(=O)NC)c(COC(=O)NC)n1C

>  <endpoint-label>
growth inhibition

>  <result-value>
3.65

$$$$
>  <molecule>
CN(C)c1c2c(oc(=O)c1Cl)-c1ccccc1OCC2

>  <endpoint-label>
growth inhibition

>  <result-value>
-17.6

$$$$
>  <molecule>
Cc1cc(C)c(C2CNCc3cc4c(cc32)CNCC4c2c(C)cc(C)cc2C)c(C)c1 (stereo not given)

>  <endpoint-label>
growth inhibition

>  <result-value>
-131

$$$$
>  <molecule>
O=C1/C(=C/c2ccc(O)cc2)CCC/C1=C\c1ccc(O)cc1

>  <endpoint-label>
growth inhibition

>  <result-value>
1.45

$$$$
>  <molecule>
CCC(SC(CC)(CC(C)C)C(N)=O)C(N)=O (stereo not given)

>  <endpoint-label>
growth inhibition

>  <result-value>
-14.4

$$$$
>  <molecule>
COc1cccc2c1C(=N)c1c(O)c3c(c(O)c1C2=O)C[C@@](O)(C(C)=O)C[C@@H]3OC1CC(N)C(O)C(C)O1 (stereo not given in full)

>  <endpoint-label>
growth inhibition

>  <result-value>
13.9

$$$$
>  <molecule>
COC(=O)CCSC(=S)NCc1ccccc1

>  <endpoint-label>
growth inhibition

>  <result-value>
-12.7

$$$$
>  <molecule>
CC(=O)Oc1ccc(CCNC(c2ccccc2)c2ccccc2)cc1OC(C)=O

>  <endpoint-label>
growth inhibition

>  <result-value>
38.3

$$$$

Now for the molecule whose growth inhibition we want.
Exercise: Supply measured growth inhibition of Nc1c(N=Nc2ccc(-c3ccc(N=Nc4ccc(O)c(C(=O)O)c4)cc3)cc2)cc(S(=O)(=O)O)c2ccccc12 in your reply.
Key: 93.1

###

- method-notes: NCI Yeast Anticancer Drug Screen. Data for the cln2 rad14 strain (AID 165);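 further: 0% = growth equal to vehicle treated cultures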
- settings: S. cerevisiae cln2 rad14 strain, at 50.0 µM, hits give high values
Compounds without any hit were thinned out: in the full panel of roughly 79,000, 15% have a hit.
Is growth inhibition at least -10%? Then T. If not, F.

Exercise: Please tell me: is the compound COC(=O)C(C(=O)C(=O)Nc1cccc([N+](=O)[O-])c1)c1nc2ccc([N+](=O)[O-])cc2[nH]c1=O (configuration not stated) at or over -10% in terms of growth inhibition?
Key: F

###

- method-notes: NCI Yeast Anticancer Drug Screen. Data for the cln2 rad14 strain (AID 165);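 further: 0% = growth equal to vehicle treated cultures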
- settings: S. cerevisiae cln2 rad14 strain, at 50.0 µM, hits give high values
About 79,000 compounds went through this panel and 15% of them were active in at least one assay; those are over-represented in the sample as a whole.
endpoint-label: growth inhibition (%)
The reply should be a number in %, with the unit left off.

>  <compound>
CC1C(C(=O)NCC(c2ccccc2)c2ccccc2)CC2CCCCN21 (configuration not stated)

>  <unit-label>
%

>  <growth inhibition>
-9.2

$$$$
>  <compound>
CCCCCCCCCCCCCCCCSc1ccc2ccccc2c1

>  <unit-label>
%

>  <growth inhibition>
-7.5

$$$$

Exercise: Entry CCn1c(=O)c2[nH]c(Br)nc2n(CC)c1=O needs its growth inhibition filled in; supply it.
Key: -6.85

###

- method-notes: NCI Yeast Anticancer Drug Screen. Data for the rad50 strain (AID 155);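 further: 0% = growth of vehicle-only cultures of the same strain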
- settings: S. cerevisiae rad50 strain growth inhibition; at 50.0 µM; hits give high values
The panel holds about 79,000 compounds, 15% with a hit somewhere; the sample as a whole holds those more often.
endpoint-label: growth inhibition (%)
Your answer is read as %, so omit the unit and give the number.

>  <compound>
Cc1cc(C)cc(C(=O)NCc2ccc[n+]([O-])c2)c1

>  <unit-label>
%

>  <growth inhibition>
-10.3

$$$$
>  <compound>
Cc1nc(NS(=O)(=O)c2ccc(N)cc2)nc(C)c1Br

>  <unit-label>
%

>  <growth inhibition>
-9.75

$$$$
>  <compound>
Cc1ccc(Nc2ncnc3c2cnn3-c2ccccc2)cc1

>  <unit-label>
%

>  <growth inhibition>
9.7

$$$$
>  <compound>
CC1=NN(c2cc(S(=O)(=O)O)ccc2Cl)C(=O)C1N=Nc1ccccc1 (configuration not stated)

>  <unit-label>
%

>  <growth inhibition>
-23.3

$$$$
>  <compound>
Cn1c(=O)c2c(=O)n3ccccc3nc2n(C)c1=O

>  <unit-label>
%

>  <growth inhibition>
48

$$$$
>  <compound>
N#Cc1cccc(N2C(=O)C3C4C=CC(C3C2=O)C2C(=O)N(c3cccc(C#N)c3)C(=O)C42)c1 (configuration not stated)

>  <unit-label>
%

>  <growth inhibition>
-8.5

$$$$
>  <compound>
CCN(CC)Cc1cc(Nc2nc(/C=C/c3ccccc3)nc3ccccc23)ccc1O

>  <unit-label>
%

>  <growth inhibition>
4.05

$$$$
>  <compound>
CC1CCC(NC2=NCCO2)C(C)C1 (configuration not stated)

>  <unit-label>
%

>  <growth inhibition>
-20.4

$$$$
>  <compound>
CC(C)(C)/C(=N\O)c1ccccc1

>  <unit-label>
%

>  <growth inhibition>
-8.8

$$$$
>  <compound>
COc1cc(C2SCC(=O)N2c2ccc(-n3c(-c4ccccc4)nc4ccccc4c3=O)cc2)ccc1O (configuration not stated)

>  <unit-label>
%

>  <growth inhibition>
-12.6

$$$$

Exercise: Report measured growth inhibition; entry is CCCCCn1c(=O)c2cc3c(=O)n(CCCCC)c(=O)c3cc2c1=O
Key: 14.2

Exercise: Let me know recorded growth inhibition for CN(CCO)c1cnn(CCO)c(=O)c1Cl , thanks.
Key: -14.9

Exercise: Specify measured growth inhibition for Cc1cccc(NC(=O)c2c(Br)c(Br)c(Br)c(Br)c2C(=O)O)c1C .
Key: 26.9

Exercise: For the compound Cc1cn(C)c2c1-c1c(cnn1-c1ccccc1)CC2 , report growth inhibition.
Key: 15.6

Exercise: Input Cc1cccc(C)c1Nc1cc(=O)[nH]c(=O)[nH]1 , output reported growth inhibition.
Key: -2.6

Exercise: Entry COc1cccc(NC(N)=O)c1 needs its growth inhibition filled in; supply it.
Key: -15.5
